test system: PC-3 prostate; experiment: NCI tumour cell line growth inhibition, 48 h; in the data active = GI50 below about 0.43 µM; inactive = the rest
Parameter call: string, one of true (1) (active), false (0) (inactive)

Exercise: Called result for Cc1cc(N/N=C/c2nc(-c3ccc(Cl)cc3)oc2C)c2cc(Cl)ccc2n1
Key: false (0)

Exercise: # fetch the recorded call for COc1cc(S(=O)(=O)Nc2ccc(C3=NNC(c4ccccc4)C3)cc2)ccc1F (stereo not given) here
Key: false (0)

Exercise: Identify the outcome logged in this assay for the compound shown: CCN(CCNc1ccc(C)c2sc3ccccc3c(=O)c12)CC(C)(C)O
Key: false (0)

Exercise: Record lookup: outcome of this test for N#C[C@@H]1C(n2ccc(N)nc2=O)O[C@H](CO)[C@H]1O (stereo not given in full) ?
Key: false (0)

Exercise: Assay outcome for COc1ccc(C(=O)N2c3ccccc3Sc3ccccc32)c(C(F)(F)F)c1 : what was it?
Key: true (1)

----------
test system: SF-295 CNS; test: NCI tumour cell line growth inhibition, 48 h
Give TGI for every item shown.

Exercise: Return reported TGI; argument: CSc1c(C#N)c2n(c3ccccc13)c1ccccc1[n+]2C
Key: > 100 µM

Exercise: Item under review: COc1c2cc(C(C)(C)C)cc1Cc1cccc(c1O)Cc1cc(C(C)(C)C)cc(c1OC)Cc1cccc(c1O)Cc1cc(C(C)(C)C)cc(c1OC)Cc1cccc(c1O)C2 . Reported TGI?
Key: > 100 µM

Exercise: Can you share its TGI? I mean this molecule: CSc1ccc(/C=C2\C=C(CC(=O)NCc3ccc(C(=O)c4ccccc4)cc3)c3cc(F)ccc32)cc1
Key: 6.9 µM

Exercise: Would you mind telling me what TGI value was observed for C[C@]12CC[C@@H]3c4ccc(O)cc4C(O)C[C@H]3[C@@H]1CCC2=O (stereo partly drawn) ?
Key: > 100 µM

Exercise: // query TGI value for entry C[C@]12CC[C@@H]3c4ccc(OC(=O)c5ccccc5)cc4CC[C@H]3[C@@H]1CC[C@@H]2Oc1c2ccccc2nc2ccccc12
Key: > 50 µM

Exercise: // returns reported TGI for input C[C@]12CC[C@H](O)CC1=CC[C@@H]1[C@@H]2CC[C@]2(C)/C(=N/OCCN3CCCC3)CC[C@@H]12
Key: 40.6 µM

Exercise: TGI lookup needed for COC(=O)CCC1=C(C)/C(=C/c2[nH]c(-c3ccc[nH]3)cc2OC)N=C1C , thanks.
Key: 3.64 µM

Exercise: Name the reported TGI value associated with the molecule CCOC(=O)[C@H]1Nc2ccc(OC)cc2C2c3ccccc3CC21 (stereo partly drawn)
Key: > 100 µM

----------
system: NCI-H23 lung; assay: NCI tumour cell line growth inhibition, 48 h
measurement.type: TGI

Exercise: What does the record list as TGI for N.N.N.N.N.N.O=N[O-].[Br-].[Co+3].[Co+3].[OH3+].[OH3+] ?
Key: > 100 µM

Exercise: Recorded TGI for CN(C)CCCOCCn1c2c(c3ccccc31)CCCC2 , please?
Key: 94.6 µM

Exercise: Request the reported TGI associated with COC(=O)[C@@]12CCCC(=O)[C@@H]1[C@H]1CCCC[C@H]12
Key: > 100 µM

Exercise: Can you look up the measured TGI of c1ccc2c(c1)nc1n2CCSC1 for me?
Key: > 100 µM

Exercise: Could you tell me which TGI is on file for CN=C1SC(=Nc2ccc(N(C)C)cc2)N1C ?
Key: > 100 µM

Exercise: Look up TGI for this compound: COC(=O)C1(Cc2ccccc2)Cc2ccccc2C1
Key: > 100 µM

Exercise: Requested field: TGI. Item: C/C(=N\NC(N)=S)c1nc2ccc(Cl)cc2[nH]1
Key: 13.7 µM

Exercise: May I ask what TGI has been recorded for S=c1nc(-c2cccnc2)[nH][nH]1 ?
Key: > 100 µM

Exercise: Entry CC1CCN(CC(=O)N2c3ccccc3Sc3cc4ccccc4cc32)CC1 : reported TGI = ?
Key: > 100 µM

Exercise: I am curious: what TGI value has been reported for C1=CC=C2NCCOCCNC3=CC=CC=CC3=NCCOCCN=C2C=C1 ?
Key: > 100 µM

Exercise: Can you share its TGI? I mean this compound: COc1cccc(-c2cc(=O)c3ccc(C)nc3[nH]2)c1
Key: > 100 µM

Exercise: Form field: reported TGI of CSc1cc(N)ccc1N=Nc1ccc(S(N)(=O)=O)cc1
Key: > 100 µM
